- tgt: UGT1A6 (Homo sapiens, UniProt P19224)
- Sequence (P19224 27-532): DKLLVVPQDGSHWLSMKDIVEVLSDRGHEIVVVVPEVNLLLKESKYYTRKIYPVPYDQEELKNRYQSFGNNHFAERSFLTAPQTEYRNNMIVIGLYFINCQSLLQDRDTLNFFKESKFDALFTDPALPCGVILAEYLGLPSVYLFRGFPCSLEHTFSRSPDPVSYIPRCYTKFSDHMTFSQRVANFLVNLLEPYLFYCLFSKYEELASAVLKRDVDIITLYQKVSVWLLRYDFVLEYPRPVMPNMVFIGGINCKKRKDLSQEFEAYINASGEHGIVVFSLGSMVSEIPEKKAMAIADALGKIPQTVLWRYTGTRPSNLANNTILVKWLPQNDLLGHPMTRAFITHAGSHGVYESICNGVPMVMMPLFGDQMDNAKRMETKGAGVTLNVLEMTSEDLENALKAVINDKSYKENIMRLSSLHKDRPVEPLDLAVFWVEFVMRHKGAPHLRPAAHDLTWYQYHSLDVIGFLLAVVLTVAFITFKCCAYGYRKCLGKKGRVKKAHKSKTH
- condition.summary: 50 μM PC components; recombinant human UGT; mean of triplicate
reported.endpoint: residual activity 1A6 (%)
Field format: number, assumed %, no unit text.

INSERT INTO results (smiles, reported_endpoint, test_value) VALUES
  ('CCCCCCCCCCCCCCCCCCC(=O)OC[C@H](COP(=O)([O-])OCC[N+](C)(C)C)OC(=O)CCCCCCCCCCCCCCCCCC', 'residual activity 1A6', 49.1);

Query: Give the reported residual activity 1A6 for this molecule. CCCCCCCCCCCCCCCC(=O)OC[C@H](COP(=O)([O-])OCC[N+](C)(C)C)OC(=O)CCCCCCCCCCCCCCC
Reply: 53.7

Query: Give the reported residual activity 1A6 for this molecule. CC/C=C\C/C=C\C/C=C\C/C=C\C/C=C\C/C=C\CCC(=O)O[C@H](COC(=O)CCCCCCCCCCCCCCCCC)COP(=O)([O-])OCC[N+](C)(C)C
Reply: 88.8

====

- tgt: UGT2B7 (Homo sapiens)
- Sequence (P16662 24-529): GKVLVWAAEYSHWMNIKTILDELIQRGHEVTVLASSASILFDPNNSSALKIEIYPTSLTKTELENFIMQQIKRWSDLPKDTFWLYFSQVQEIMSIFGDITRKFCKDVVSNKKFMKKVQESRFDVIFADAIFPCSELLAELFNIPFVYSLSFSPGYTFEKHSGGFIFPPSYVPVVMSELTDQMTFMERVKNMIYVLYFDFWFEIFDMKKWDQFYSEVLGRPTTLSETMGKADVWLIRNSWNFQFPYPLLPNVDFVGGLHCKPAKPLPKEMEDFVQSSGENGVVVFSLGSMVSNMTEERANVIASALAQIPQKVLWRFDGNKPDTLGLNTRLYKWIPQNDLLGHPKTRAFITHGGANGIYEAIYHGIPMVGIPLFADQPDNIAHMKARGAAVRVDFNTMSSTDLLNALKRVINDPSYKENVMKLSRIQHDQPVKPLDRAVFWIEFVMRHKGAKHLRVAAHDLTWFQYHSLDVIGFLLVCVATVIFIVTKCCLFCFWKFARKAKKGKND
- run.description: UGT2B7 supersomes-catalyzed 4-MU glucuronidation inhibition
- condition.summary: 50 μM PC components; recombinant human UGT; mean of triplicate
Please mark met if the recorded residual activity 2B7 is equal to or greater than 60%, and not met if it falls below.

Before answering, review these 5 worked examples.
INSERT INTO results (smiles, tgt, classification) VALUES
  ('CCCCCCC(=O)OC[C@H](COP(=O)([O-])OCC[N+](C)(C)C)OC(=O)CCCCCC', 'UGT2B7 (Homo sapiens)', 'met'),
  ('CCCCCCCCCCCCCCCCCCCCC(=O)OC[C@H](COP(=O)([O-])OCC[N+](C)(C)C)OC(=O)CCCCCCCCCCCCCCCCCCCC', 'UGT2B7 (Homo sapiens)', 'not met'),
  ('CCCCCCCCCCCCCCCCCCCCCCC(=O)OC[C@H](COP(=O)([O-])OCC[N+](C)(C)C)OC(=O)CCCCCCCCCCCCCCCCCCCCCC', 'UGT2B7 (Homo sapiens)', 'met'),
  ('CCCCCCCCCCCCCCCCCC(=O)OC[C@H](COP(=O)([O-])OCC[N+](C)(C)C)OC(=O)CCCCCCCCCCCCCCCCC', 'UGT2B7 (Homo sapiens)', 'not met'),
  ('CCCCCCCCCCC(=O)OC[C@H](COP(=O)([O-])OCC[N+](C)(C)C)OC(=O)CCCCCCCCCC', 'UGT2B7 (Homo sapiens)', 'met');

Query: In plain terms: is recorded residual activity 2B7 at least 60% for CCCCCCCCCCCCCCCCCCCCCC(=O)OC[C@H](COP(=O)([O-])OCC[N+](C)(C)C)OC(=O)CCCCCCCCCCCCCCCCCCCCC ?
Reply: not met

====

residual activity 1A9 values for the compounds below.
- tgt: UGT1A9 (Homo sapiens)
- run.description: UGT1A9 supersomes-catalyzed 4-MU glucuronidation inhibition
- condition.summary: 50 μM PC components; recombinant human UGT; mean of triplicate
Field format: number, assumed %, no unit text.

Query: Give the reported residual activity 1A9 for this compound. CCCCCCCCCCCCCC(=O)OC[C@H](COP(=O)([O-])OCC[N+](C)(C)C)OC(=O)CCCCCCCCCCCCC
Reply: 86.3

Query: Give the reported residual activity 1A9 for this compound. CCCCCCCCCC(=O)OC[C@H](COP(=O)([O-])OCC[N+](C)(C)C)OC(=O)CCCCCCCCC
Reply: 158

Query: Give the reported residual activity 1A9 for this compound. CCCCCCCCCCCCC(=O)OC[C@H](COP(=O)([O-])OCC[N+](C)(C)C)OC(=O)CCCCCCCCCCCC
Reply: 99.2

Query: Give the reported residual activity 1A9 for this compound. CCCCCCCCCCC(=O)OC[C@H](COP(=O)([O-])OCC[N+](C)(C)C)OC(=O)CCCCCCCCCC
Reply: 97.8

====

residual activity 1A1 values for the compounds below.
- tgt: UGT1A1 (Homo sapiens, UniProt P22309)
- Sequence (P22309 26-533): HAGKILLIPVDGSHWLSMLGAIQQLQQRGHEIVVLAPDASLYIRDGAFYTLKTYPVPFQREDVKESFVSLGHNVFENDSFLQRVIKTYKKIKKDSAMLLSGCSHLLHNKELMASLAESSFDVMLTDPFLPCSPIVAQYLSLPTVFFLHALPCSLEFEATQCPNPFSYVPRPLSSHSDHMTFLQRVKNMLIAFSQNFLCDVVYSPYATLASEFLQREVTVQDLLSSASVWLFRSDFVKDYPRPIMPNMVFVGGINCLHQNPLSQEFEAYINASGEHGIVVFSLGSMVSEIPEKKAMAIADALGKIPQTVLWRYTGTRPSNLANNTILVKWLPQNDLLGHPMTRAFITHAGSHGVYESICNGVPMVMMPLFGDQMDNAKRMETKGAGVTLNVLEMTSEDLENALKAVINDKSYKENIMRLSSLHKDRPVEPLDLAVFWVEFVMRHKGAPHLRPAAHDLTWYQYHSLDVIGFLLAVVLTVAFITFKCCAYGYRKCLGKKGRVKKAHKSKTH
- run.description: UGT1A1 supersomes-catalyzed 4-MU glucuronidation inhibition
- condition.summary: 50 μM LPC components; recombinant human UGT; mean of triplicate
Field format: number, assumed %, no unit text.

Some solved cases for reference:
INSERT INTO assay_data (compound, test_value) VALUES
  ('CCCCCCCCCC(=O)OC[C@@H](O)COP(=O)([O-])OCC[N+](C)(C)C', 170.2),
  ('CCCCCCCCC(=O)OC[C@@H](O)COP(=O)([O-])OCC[N+](C)(C)C', 179.6),
  ('CCCCCCCC(=O)OCC(O)COP(=O)([O-])OCC[N+](C)(C)C (centres unmarked)', 184.9),
  ('CCCCCCCCCCCC(=O)OC[C@@H](O)COP(=O)([O-])OCC[N+](C)(C)C', 165.9),
  ('CCCCCCCCCCCCCC(=O)OC[C@@H](O)COP(=O)([O-])OCC[N+](C)(C)C', 171.3),
  ('CCCCCC(=O)OC[C@@H](O)COP(=O)([O-])OCC[N+](C)(C)C', 176.7),
  ('CCCCCCCCCCCCCCCCCC(=O)OC[C@@H](O)COP(=O)([O-])OCC[N+](C)(C)C', 160.5);

# context switch: different compound, same residual activity 1A1
Query: Give the reported residual activity 1A1 for this compound. CCCCCCCCCCCCCCCCC(=O)OC[C@@H](O)COP(=O)([O-])OCC[N+](C)(C)C
Reply: 167.6

====

- tgt: UGT1A9 (Homo sapiens, UniProt O60656)
- Sequence (O60656 26-530): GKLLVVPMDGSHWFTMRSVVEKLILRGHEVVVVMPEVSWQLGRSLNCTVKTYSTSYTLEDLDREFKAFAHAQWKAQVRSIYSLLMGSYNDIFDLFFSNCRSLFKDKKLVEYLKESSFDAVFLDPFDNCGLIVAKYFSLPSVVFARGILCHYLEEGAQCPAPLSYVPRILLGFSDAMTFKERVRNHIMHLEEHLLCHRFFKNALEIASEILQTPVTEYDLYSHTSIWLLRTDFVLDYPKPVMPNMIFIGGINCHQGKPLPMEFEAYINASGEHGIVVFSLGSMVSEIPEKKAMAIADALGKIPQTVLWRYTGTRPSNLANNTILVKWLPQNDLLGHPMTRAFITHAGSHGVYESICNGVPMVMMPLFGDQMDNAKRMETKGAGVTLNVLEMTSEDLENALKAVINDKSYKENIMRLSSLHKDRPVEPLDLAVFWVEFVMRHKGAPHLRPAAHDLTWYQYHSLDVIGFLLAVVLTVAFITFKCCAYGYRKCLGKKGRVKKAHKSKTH
- run.description: UGT1A9 supersomes-catalyzed 4-MU glucuronidation inhibition
- condition.summary: 50 μM LPC components; recombinant human UGT; mean of triplicate
Please mark label 1 if the recorded residual activity 1A9 is equal to or greater than 90%, and label 0 if it falls below.

Before answering, review these 4 worked examples.
INSERT INTO assay_data (compound, classification) VALUES
  ('CCCCCCCCCCCCCCC(=O)OC[C@@H](O)COP(=O)([O-])OCC[N+](C)(C)C', 'label 0'),
  ('CCCCCCCCCCCCCCCCCC(=O)OC[C@@H](O)COP(=O)([O-])OCC[N+](C)(C)C', 'label 0'),
  ('CCCCCCCCCC(=O)OC[C@@H](O)COP(=O)([O-])OCC[N+](C)(C)C', 'label 1'),
  ('CCCCCCCCCCCCC(=O)OC[C@@H](O)COP(=O)([O-])OCC[N+](C)(C)C', 'label 1');

Lab note: next compound to report on.
Query: In plain terms: is recorded residual activity 1A9 at least 90% for CCCCCCC(=O)OCC(O)COP(=O)([O-])OCC[N+](C)(C)C (stereo not drawn) ?
Reply: label 1

====

- tgt: UGT1A8 (Homo sapiens)
- Sequence (Q9HAW9 26-530): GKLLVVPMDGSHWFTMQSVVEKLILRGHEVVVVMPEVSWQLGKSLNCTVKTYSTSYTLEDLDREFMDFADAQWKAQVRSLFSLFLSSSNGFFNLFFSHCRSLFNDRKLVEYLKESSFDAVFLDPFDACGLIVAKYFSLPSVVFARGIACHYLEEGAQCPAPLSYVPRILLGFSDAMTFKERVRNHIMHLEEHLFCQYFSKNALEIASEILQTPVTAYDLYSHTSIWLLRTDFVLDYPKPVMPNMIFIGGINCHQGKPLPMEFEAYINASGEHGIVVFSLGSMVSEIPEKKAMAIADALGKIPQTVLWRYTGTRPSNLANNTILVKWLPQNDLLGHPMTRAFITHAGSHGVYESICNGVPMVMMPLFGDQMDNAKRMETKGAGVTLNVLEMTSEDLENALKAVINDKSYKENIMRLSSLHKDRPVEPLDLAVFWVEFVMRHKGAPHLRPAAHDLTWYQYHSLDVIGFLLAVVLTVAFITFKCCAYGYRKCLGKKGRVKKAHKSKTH
- condition.summary: 50 μM LPC components; recombinant human UGT; mean of triplicate
reported.endpoint: residual activity 1A8 (%)
Field format: number, assumed %, no unit text.

Some solved cases for reference:
INSERT INTO assay_data (compound, units_of_measure, test_value) VALUES
  ('CCCCCCCCCCCCCCCCCC(=O)OC[C@@H](O)COP(=O)([O-])OCC[N+](C)(C)C', '%', 1.2),
  ('CCCCCCCC(=O)OCC(O)COP(=O)([O-])OCC[N+](C)(C)C (stereo not drawn)', '%', 102.7),
  ('CCCCCCCCCCCCCC(=O)OC[C@@H](O)COP(=O)([O-])OCC[N+](C)(C)C', '%', 19.2),
  ('CCCCCCCCCC(=O)OC[C@@H](O)COP(=O)([O-])OCC[N+](C)(C)C', '%', 100.7),
  ('CCCCCCCCCCCC(=O)OC[C@@H](O)COP(=O)([O-])OCC[N+](C)(C)C', '%', 89.2);

Query: Give the reported residual activity 1A8 for this compound. CCCCCCCCC(=O)OC[C@@H](O)COP(=O)([O-])OCC[N+](C)(C)C
Reply: 101.2

Query: Give the reported residual activity 1A8 for this compound. CCCCCC(=O)OC[C@@H](O)COP(=O)([O-])OCC[N+](C)(C)C
Reply: 108.0

Query: Give the reported residual activity 1A8 for this compound. CCCCCCCCCCCCC(=O)OC[C@@H](O)COP(=O)([O-])OCC[N+](C)(C)C
Reply: 101.6

Query: Give the reported residual activity 1A8 for this compound. CCCCCCCCCCC(=O)OC[C@@H](O)COP(=O)([O-])OCC[N+](C)(C)C
Reply: 124.0

Query: Give the reported residual activity 1A8 for this compound. CCCCCCCCCCCCCCCCC(=O)OC[C@@H](O)COP(=O)([O-])OCC[N+](C)(C)C
Reply: 2.2

Query: Give the reported residual activity 1A8 for this compound. CCCCCCC(=O)OCC(O)COP(=O)([O-])OCC[N+](C)(C)C (stereo not drawn)
Reply: 101.1

Query: Give the reported residual activity 1A8 for this compound. CCCCCCCCCCCCCCC(=O)OC[C@@H](O)COP(=O)([O-])OCC[N+](C)(C)C
Reply: 1.6

Values compiled from paper PMC6631349.
